Hi there, I'd appreciate the recorded cell viability for every entry that follows.
# Tested on: K-562
# MEASUREMENT PROTOCOL: cell viability (% survival relative to DMSO control, bortezomib = 0%); higher = less cytotoxic
# RUN PARAMETERS: 100 nM; 72 h
Express your answer in %, writing the number without its unit.

Field request: cell viability | item: CCOC(=O)N1c2ccc(C(F)(F)F)cc2[C@@H](N(Cc2cc(C(F)(F)F)cc(C(F)(F)F)c2)C(=O)OC)C[C@H]1CC 121

Look up cell viability for this compound: NC(=O)c1ncn([C@@H]2O[C@H](CO)[C@@H](O)[C@H]2O)n1 119

Given the compound CCOC(=O)[C@H]1O[C@@H]1C(=O)N[C@@H](CC(C)C)C(=O)NCCC(C)C , what is its reported cell viability? 85.4

# input compound: C[C@]12O[C@H](C[C@]1(O)CO)n1c3ccccc3c3c4c(c5c6ccccc6n2c5c31)CNC4=O ; wanted: its cell viability 64.5

So what does the record say about cell viability for O=C1Nc2ccccc2/C1=C\NCCc1ccc(O)c(O)c1 ? 99.7

Can you look up the measured cell viability of CC(C)C[C@H](NC(=O)[C@@H](O)[C@H](N)Cc1ccccc1)C(=O)O for me? 113

Look at this compound and give its reported cell viability. Cc1c(-c2ccccc2)oc2c(C(=O)OCCN3CCCCC3)cccc2c1=O.Cl [Flavoxate] 89.8

Quick check: cell viability of O=C(O)CCc1ccc(NCc2cccc(Oc3ccccc3)c2)cc1 ? 100

====

# Tested on: HL-60
# MEASUREMENT PROTOCOL: cell viability (% survival relative to DMSO control); higher = less cytotoxic
# RUN PARAMETERS: 0.1 µM; 72 h; co-treatment: DMSO vehicle
OBSERVATION TYPE: cell viability (%)
Express it in %; write the number only.

Return reported cell viability; argument: O=C(O)c1cc2sccc2[nH]1 [4H-thieno[3,2-b]pyrrole-5-carboxylic acid] 103

What cell viability value was documented for this compound, OCCN1CCN(CCCN2c3ccccc3Sc3ccc(Cl)cc32)CC1 [Perphenazine] ? 105

Reported cell viability, compound O=C(O)C(Cl)Cl [Dichloroacetate] : ____ 102

Field request: cell viability | item: NC(=O)c1ncn([C@@H]2O[C@H](CO)[C@@H](O)[C@H]2O)n1 [Ribavirin] 102

// query cell viability value for entry C=CCc1ccc2c(c1O)C(=O)c1ccccc1C2=O [R162] 98.1

====

# Test system: HL-60
# MEASUREMENT PROTOCOL: area under dose-response curve (viability, 1 nM-10 uM) (fraction (0-1)); higher = more sensitive
# RUN PARAMETERS: 72 h; co-treatment: GSK2194069 100 nM
OBSERVATION TYPE: area under dose-response curve

Recall the recorded area under dose-response curve for [N-]=[N+]=CC(=O)CC[C@H](N)C(=O)O with HL-60 and state it. < 0.0301

Could you share what area under dose-response curve was measured for Clc1ccc2c(c1Cl)CNCC2 , tested on HL-60? < 0.0301

Request: area under dose-response curve, test system HL-60, entry O=C1Oc2ccccc2C(=O)C1CC1C(=O)Oc2ccccc2C1=O (centres undefined) < 0.0301

State its area under dose-response curve on HL-60: CCN(CC)CCN(Cc1ccc(-c2ccc(C(F)(F)F)cc2)cc1)C(=O)Cn1c(SCc2ccc(F)cc2)nc(=O)c2c1CCC2 0.167

Requested read-out area under dose-response curve, target or system HL-60, entry C1CCc2nnc(C34CC5CC(CC(C5)C3)C4)n2CC1 < 0.0301

Report area under dose-response curve for C=CCc1ccc2c(c1O)C(=O)c1ccccc1C2=O tested on HL-60. < 0.0301

Please state recorded area under dose-response curve (tested on HL-60) of C#Cc1cnc(O)nc1O < 0.0301

Checklist item: area under dose-response curve tested on HL-60, entry Cl.OC[C@H]1NC[C@@H](O)[C@@H](O)[C@@H]1O [1-Deoxymannojirimycin hydrochloride] , value? < 0.0301

Field: area under dose-response curve (HL-60). Entry: Sc1ncnc2nc[nH]c12 0.0946
